These measurements were taken from paper PMC4336329.

Molecular target: human ether-à-go-go-related gene (hERG) potassium channel (human, UniProt Q12809)
Sequence (Q12809 whole entry, looked up): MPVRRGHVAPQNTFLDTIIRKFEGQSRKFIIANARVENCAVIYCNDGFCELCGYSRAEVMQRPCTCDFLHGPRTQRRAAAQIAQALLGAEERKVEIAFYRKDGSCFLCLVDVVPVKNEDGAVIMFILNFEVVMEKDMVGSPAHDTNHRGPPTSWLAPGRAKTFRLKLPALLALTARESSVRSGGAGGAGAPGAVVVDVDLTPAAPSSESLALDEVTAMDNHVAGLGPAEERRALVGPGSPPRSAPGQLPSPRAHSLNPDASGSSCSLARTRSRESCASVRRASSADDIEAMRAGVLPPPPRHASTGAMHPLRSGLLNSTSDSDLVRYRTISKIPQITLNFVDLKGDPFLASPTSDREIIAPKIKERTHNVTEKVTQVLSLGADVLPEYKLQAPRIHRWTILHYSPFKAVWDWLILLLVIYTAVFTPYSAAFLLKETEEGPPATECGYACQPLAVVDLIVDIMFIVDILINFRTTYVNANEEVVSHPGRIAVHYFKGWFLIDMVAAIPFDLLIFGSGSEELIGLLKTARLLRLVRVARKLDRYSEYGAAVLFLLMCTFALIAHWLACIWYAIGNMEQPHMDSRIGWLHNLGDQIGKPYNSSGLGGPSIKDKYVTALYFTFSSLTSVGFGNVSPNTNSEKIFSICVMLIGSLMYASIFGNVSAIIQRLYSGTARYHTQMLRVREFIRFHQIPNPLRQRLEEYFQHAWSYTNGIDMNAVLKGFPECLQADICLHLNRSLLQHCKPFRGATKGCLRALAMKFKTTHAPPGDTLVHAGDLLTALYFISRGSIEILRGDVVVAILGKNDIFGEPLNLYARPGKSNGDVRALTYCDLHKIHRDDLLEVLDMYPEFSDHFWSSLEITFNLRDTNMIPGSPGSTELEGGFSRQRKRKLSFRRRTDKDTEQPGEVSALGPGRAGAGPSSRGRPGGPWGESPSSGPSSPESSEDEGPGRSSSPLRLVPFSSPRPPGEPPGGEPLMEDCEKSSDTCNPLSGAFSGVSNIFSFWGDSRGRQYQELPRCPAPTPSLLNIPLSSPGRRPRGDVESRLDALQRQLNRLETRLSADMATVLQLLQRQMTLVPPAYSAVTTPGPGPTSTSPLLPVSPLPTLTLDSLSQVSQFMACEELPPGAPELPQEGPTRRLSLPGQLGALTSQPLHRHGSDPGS
Test: primary screen, population patch clamp on CHO cells stably expressing hERG; higher = less effect of the substance
About 2,200 (0.71%) of roughly 310,000 compounds showed an effect of 50% or more. Effects have a minus sign here. This excerpt belongs to a sample that is enriched for strong results.
readout.name: hERG current change (%, negative = inhibition) at 1uM (%)

molecule: CO/N=C/c1ccc(N2CCN(C(=O)c3ccc(F)cc3)CC2)c([N+](=O)[O-])c1
reported.result: -78.1
--
molecule: CC1(c2nnc(-c3cccc(Cl)c3)o2)CC(c2cccc([N+](=O)[O-])c2)=NO1 (stereo not drawn)
reported.result: 16.3
--
molecule: COc1ccc(S(=O)(=O)N2CCC(Nc3ccccc3Cl)CC2)cc1
reported.result: 28.1
--
molecule: CC(C)c1ccc2c(c1)c(SC(C)(C)C)c(CC(C)(C)C(=O)O)n2Cc1ccc(Cl)cc1
reported.result: 5.14
--
molecule: CO/N=C/c1ccc(N2CCN(C(=O)c3ccc(C)cc3)CC2)c([N+](=O)[O-])c1
reported.result: -67.2
--
molecule: COc1ccc(CCC(C)NCCc2ccc(Cl)cc2Cl)cc1 (stereo not drawn)
reported.result: -50.1
--
molecule: COc1ccc(N2CCN(C(=O)c3ccc(F)cc3)CC2)c([N+](=O)[O-])c1
reported.result: -38.3
--
molecule: COc1ccc(N2CCN(C(=O)c3ccc(C)cc3)CC2)c([N+](=O)[O-])c1
reported.result: -29.7
--
molecule: CO/N=C/c1ccc(N2CCN(C(=O)c3cccc(C(F)(F)F)c3)CC2)c([N+](=O)[O-])c1
reported.result: -2.38

###

Parameter: hERG current change (%, negative = inhibition) at 1uM. Scope: all listed entries.
Molecular target: human ether-à-go-go-related gene (hERG) potassium channel (human)
Assay: primary screen, population patch clamp on CHO cells stably expressing hERG; higher = less effect of the substance
Screen size: about 310,000 compounds; about 2,200 (0.71%) showed an effect of 50% or more. The effect is printed as a negative number. Only a selection was taken, and strong results are over-represented in it overall.
readout.name: hERG current change (%, negative = inhibition) at 1uM (%)

chem.smiles: CCOC(=O)C1(Cc2ccccc2)CCN(Cc2cccn2-c2cccnc2)CC1
reported.result: 1.67
--
chem.smiles: CCOC(=O)C1(Cc2cccc(OC)c2)CCN(Cc2ccccc2)CC1
reported.result: -7.08
--
chem.smiles: CCOC(=O)C1(Cc2cccc(OC)c2)CCN(Cc2ccccc2OC)CC1
reported.result: -18.5
--
chem.smiles: CCOC(=O)C1(Cc2ccccc2)CCN(Cc2cccn2-c2nccs2)CC1
reported.result: -69.8
--
chem.smiles: FCCCOc1ccc(/C=N/OCc2ccc(Cl)cc2Cl)cc1
reported.result: 9.53

###

Target: human ether-à-go-go-related gene (hERG) potassium channel (human, UniProt Q12809)
Assay: primary screen, population patch clamp on CHO cells stably expressing hERG; higher = less effect of the substance
Out of some 310,000 compounds screened, about 2,200 (0.71%) showed an effect of 50% or more. Effects have a minus sign here. Many of the other results were omitted from the sample, so strong results are more common in it than they were.
Response key: 1 means hERG current change (%, negative = inhibition) at 1uM >= -10%; -1 means hERG current change (%, negative = inhibition) at 1uM < -10%.

compound: COCCn1nnnc1C(c1ccc(OC)cc1OC)N1CCN(c2ccccc2)CC1 (stereo not drawn)
class.label: -1
--
compound: Cc1c(Cl)cccc1NC(=O)COc1ccc(S(=O)(=O)N2CCOCC2)cc1
class.label: 1
--
compound: CCCN1C2CCCC1CC(NC(=O)c1ccc(F)cc1)C2 (stereo not drawn)
class.label: -1
--
compound: O=C(CSc1nc2ccccc2c(=O)n1Cc1ccco1)N1CCCC1
class.label: -1
--
compound: Cc1ccc(C(=O)NC2CC3CCCC(C2)N3Cc2ccccc2)cc1 (stereo not drawn)
class.label: 1
--
compound: Cc1ccc(COC(=O)c2cc(S(=O)(=O)N3CCCCC3)ccc2N2CCOCC2)cc1
class.label: 1
--
compound: Cc1ccc(-c2cc(C(=O)NCCc3ccccn3)c3ccccc3n2)c(C)c1
class.label: -1
--
compound: FC(F)(F)C(Oc1nc(Nc2ccc(Cl)cc2)nc(N2CCOCC2)n1)C(F)(F)F
class.label: 1
--
compound: O=C(CN1CCCC1)Nc1ccccc1Sc1ccc(Cl)cc1
class.label: 1
--
compound: O=C(c1cccc(S(=O)(=O)N2CCOCC2)c1)N(Cc1ccc(F)cc1)Cc1ccco1
class.label: -1
--
compound: CCOc1cc(CN2CCCC(CO)(Cc3ccc(F)cc3F)C2)ccc1OC (stereo not drawn)
class.label: -1
--
compound: CC(C)Cn1c(SCC(=O)N2CCN(C(=O)c3ccco3)CC2)nc2ccccc2c1=O
class.label: -1
--
compound: O=C(NCCc1ccc(F)cc1)c1cc([N+](=O)[O-])ccc1N1CCOCC1
class.label: -1
--
compound: NS(=O)(=O)c1ccc(CCNC(=O)c2cc([N+](=O)[O-])ccc2N2CCOCC2)cc1
class.label: 1
--
compound: CC(=O)c1cccc(CN2CCCCC2C(=O)Nc2ccc(Oc3ccccc3)nc2)c1 (stereo not drawn)
class.label: 1
--
compound: CN1CCN(CC(=O)Nc2c(C(=O)C3CC3)oc3ccccc23)CC1
class.label: -1
--
compound: CN(C)S(=O)(=O)c1cccc(C(=O)N(Cc2ccc(F)cc2)Cc2ccco2)c1
class.label: -1
--
compound: Cc1ccc(NC(=S)N(CCC(C)C)C(C)c2ccncc2)c(Cl)c1 (stereo not drawn)
class.label: 1
--
compound: Cc1cc(Cl)ccc1OCCCC(=O)N1CCOCC1
class.label: 1
--
compound: Cc1ccc2c(c1)CC1(CN2C)C(=O)NC(=O)N(C(C)C)C1=O (stereo not drawn)
class.label: 1
--
compound: CCC(=O)N(Cc1ccc(C)cc1)Cc1cc2cc3c(cc2[nH]c1=O)OCO3
class.label: 1
--
compound: COc1cccc(/C=C/C(=O)Nc2ccc3c(c2)OCCO3)c1OC
class.label: 1
--
compound: COc1nc(-c2ccccc2)ccc1-c1noc(-c2cccs2)n1
class.label: 1
--
compound: Cc1ccc(COC(=O)c2cc([N+](=O)[O-])ccc2N2CCOCC2)cc1
class.label: -1
--
compound: O=C(OCc1ccc(F)cc1)c1cc(S(=O)(=O)N2CCCCC2)ccc1N1CCOCC1
class.label: 1
--
compound: Cc1ccc(-c2csc3nc(C(C)C)oc(=O)c23)c(C)c1
class.label: 1
--
compound: Cc1ccc(C)c(S(=O)(=O)N2CCCOC2CNC(=O)C(=O)NC2CC2)c1 (stereo not drawn)
class.label: 1
--
compound: Cc1cc(Cl)ccc1OCCCC(=O)N1CCN(C(=O)c2ccco2)CC1
class.label: -1
--
compound: CCNC(=S)NC1CC2CCCC(C1)N2Cc1ccc(C)cc1 (stereo not drawn)
class.label: -1
--
compound: CCN(CC)C(=O)CSc1nc2c(sc(=S)n2Cc2ccco2)c(=O)n1-c1ccccc1
class.label: 1
--
compound: CCN(CC(=O)Nc1ccc(NC(C)=O)cc1)C(=O)COc1ccc(C(=O)c2ccccc2)cc1
class.label: 1
--
compound: Cc1ccc(CN2C3CCCC2CC(NC(=S)NCc2ccccc2)C3)cc1 (stereo not drawn)
class.label: -1
--
compound: O=C(CN1CCN(C(=O)c2ccccc2)CC1)Nc1ccc(Cl)cc1F
class.label: -1
--
compound: CN1CCN(CC(=O)Nc2c(C(=O)c3ccccc3)oc3ccccc23)CC1
class.label: -1
--
compound: O=C(N/C(=C/c1cn(-c2ccccc2)nc1-c1ccccc1)C(=O)N1CCOCC1)c1ccc(Cl)cc1Cl
class.label: 1
--
compound: O=C(NC1CC2CCCC(C1)N2Cc1ccc(F)cc1)c1ccc(F)cc1 (stereo not drawn)
class.label: -1
--
compound: O=C(c1cccc(S(=O)(=O)N2CCOCC2)c1)N(Cc1ccco1)Cc1cccs1
class.label: 1
--
compound: CN1CCN(c2nc(Nc3ccc(F)cc3)nc(Nc3ccc(F)cc3)n2)CC1
class.label: 1
--
compound: CC(=O)N1CCN(CC(=O)Nc2ccccc2Sc2ccc(Cl)cc2)CC1
class.label: -1
